molecular target: Recombinant STAT3 protein (STAT3(G127-I722)) (Homo sapiens, UniProt P40763); construct: Recombinant STAT3 protein (STAT3(G127-I722)); assay: STAT3 Fluorescence Polarization (FP) Assay; settings: STAT3(G127-I722) 25 nM, probe 5-FAM-GpYLPQTV-NH2 2 nM, 45-minute incubation
Sequence (P40763 127-722): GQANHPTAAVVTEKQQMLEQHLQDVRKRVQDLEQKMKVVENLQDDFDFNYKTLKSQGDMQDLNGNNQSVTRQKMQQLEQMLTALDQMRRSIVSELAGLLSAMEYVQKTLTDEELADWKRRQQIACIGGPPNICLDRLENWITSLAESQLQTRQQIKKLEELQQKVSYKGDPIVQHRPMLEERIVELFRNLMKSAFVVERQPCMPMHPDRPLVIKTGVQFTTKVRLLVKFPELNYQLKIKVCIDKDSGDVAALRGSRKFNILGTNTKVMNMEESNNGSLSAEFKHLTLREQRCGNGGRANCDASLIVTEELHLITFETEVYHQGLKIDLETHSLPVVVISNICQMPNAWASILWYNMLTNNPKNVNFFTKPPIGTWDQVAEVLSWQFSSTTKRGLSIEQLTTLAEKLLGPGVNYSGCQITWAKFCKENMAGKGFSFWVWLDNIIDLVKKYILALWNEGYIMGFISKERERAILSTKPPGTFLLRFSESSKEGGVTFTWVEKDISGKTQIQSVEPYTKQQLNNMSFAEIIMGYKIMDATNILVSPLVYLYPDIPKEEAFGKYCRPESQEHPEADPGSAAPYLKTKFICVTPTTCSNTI
experimental.endpoint: IC50

Q. Could you share which IC50 value was measured for CC(=O)N1CC[C@H]2CC[C@@H](C(=O)N(c3ccccc3)c3ccccc3)N2C(=O)[C@@H](NC(=O)c2cc3cc(C(F)(F)P(=O)(O)O)ccc3[nH]2)C1 [Compound 55] ?
A. 1 to 10 µM

Q. Could you share which IC50 value was measured for CC(=O)N1CC[C@H]2CC[C@@H](C(=O)Nc3ccc4cnccc4c3)N2C(=O)[C@@H](NC(=O)c2cc3cc(C(F)(F)P(=O)(O)O)ccc3s2)C1 [Compound 158] ?
A. 0.1 to 1 µM

Q. Could you share which IC50 value was measured for CC(=O)N1CC[C@H]2CC[C@@H](C(=O)N(Cc3ccccc3)c3ccccc3)N2C(=O)[C@@H](NC(=O)c2cc3cc(C(F)(F)P(=O)(O)O)ccc3[nH]2)C1 [Compound 56] ?
A. 1 to 10 µM

Q. Could you share which IC50 value was measured for CC(=O)N1CC[C@H]2CC[C@@H](C(=O)N3CCC3Cc3ccccc3)N2C(=O)[C@@H](NC(=O)c2cc3cc(C(F)(F)P(=O)(O)O)ccc3[nH]2)C1 (some centres unmarked) [Compound 104] ?
A. 1 to 10 µM

Q. Could you share which IC50 value was measured for CC(=O)N1CC[C@H]2CC[C@@H](C(=O)N3CCC(C(=O)N4CCCCC4)CC3)N2C(=O)[C@@H](NC(=O)c2cc3cc(C(F)(F)P(=O)(O)O)ccc3s2)C1 [Compound 192] ?
A. 1 to 10 µM

====

target: Recombinant STAT6 protein (STAT6(W123-T658)) (Homo sapiens, UniProt P42226); construct: Recombinant STAT6 protein (STAT6(W123-T658)); assay: STAT6 Fluorescence Polarization (FP) Assay; details: STAT6(W123-T658) 250 nM, probe 5-FAM-ApYKPFQDLI-NH2 2 nM, 45-minute incubation
Sequence (P42226 123-658): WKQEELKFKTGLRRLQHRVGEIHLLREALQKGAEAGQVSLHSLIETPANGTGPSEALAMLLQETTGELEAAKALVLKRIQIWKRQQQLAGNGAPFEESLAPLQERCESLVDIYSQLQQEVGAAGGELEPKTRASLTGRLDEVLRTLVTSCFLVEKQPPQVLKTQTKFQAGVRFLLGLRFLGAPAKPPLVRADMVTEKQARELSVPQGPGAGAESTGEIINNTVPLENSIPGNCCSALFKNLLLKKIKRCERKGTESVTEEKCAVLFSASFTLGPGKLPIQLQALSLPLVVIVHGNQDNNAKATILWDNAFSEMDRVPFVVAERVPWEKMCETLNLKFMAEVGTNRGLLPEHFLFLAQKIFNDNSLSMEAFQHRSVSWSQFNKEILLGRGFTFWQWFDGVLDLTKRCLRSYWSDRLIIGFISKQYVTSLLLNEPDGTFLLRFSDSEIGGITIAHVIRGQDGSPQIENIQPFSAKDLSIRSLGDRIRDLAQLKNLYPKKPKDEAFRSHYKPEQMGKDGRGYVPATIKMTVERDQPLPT
pIC50: −log10 of the molar value.
experimental.endpoint: pIC50

Q. Could you share which pIC50 value was measured for CNC(=O)C[C@@H](Cc1ccc(OC)cc1)NC(=O)[C@@H]1CC[C@@H]2CCN(C(=O)c3n[nH]c4ccc(C)cc34)C[C@H](NC(=O)c3ccc4ccc(C(F)(F)P(=O)(O)O)cc4c3)C(=O)N21 ?
A. ≥ 6.52

Q. Could you share which pIC50 value was measured for O=C(N[C@H]1CN(C(=O)c2ncn3ccccc23)CC[C@H]2CC[C@@H](C(=O)N3CCOCC3)N2C1=O)c1ccc2ccc(C(F)P(=O)(O)O)cc2c1 (stereo partly shown) ?
A. 5.52 to 6.52

Q. Could you share which pIC50 value was measured for Cc1ccc2onc(C(=O)N3CC[C@H]4CC[C@@H](C(=O)N5C[C@@H]6C[C@H]5CO6)N4C(=O)[C@@H](NC(=O)c4ccc5ccc(C(F)P(=O)(O)O)cc5c4)C3)c2c1 (stereo partly shown) ?
A. ≥ 6.52

Q. Could you share which pIC50 value was measured for CC(=O)N1CC[C@H]2CC[C@@H](C(=O)N3CC(c4ccccc4)[C@@H](c4ccccc4)C3)N2C(=O)[C@@H](NC(=O)c2cc3cc(C(F)(F)P(=O)(O)O)ccc3s2)C1 (relative stereo) ?
A. ≥ 6.52

Q. Could you share which pIC50 value was measured for CC(=O)N1CC[C@H]2CC[C@@H](C(=O)N(C)C)N2C(=O)[C@@H](NC(=O)c2cc3cc(C(F)(F)P(=O)(O)O)ccc3[nH]2)C1 ?
A. 5.52 to 6.52

Q. Could you share which pIC50 value was measured for CC(=O)N1CC[C@H]2CC[C@@H](C(=O)N(C)c3ccc(C#N)cc3)N2C(=O)[C@@H](NC(=O)c2cc3cc(C(F)(F)P(=O)(O)O)ccc3s2)C1 ?
A. 4.52 to 5.52

Q. Could you share which pIC50 value was measured for CC(=O)N1CC[C@H]2CC[C@@H](C(=O)N3CCC[C@H]3c3ccccc3)N2C(=O)[C@@H](NC(=O)c2cc3cc(C(F)(F)P(=O)(O)O)ccc3[nH]2)C1 ?
A. 5.52 to 6.52

Q. Could you share which pIC50 value was measured for CCN1CC[C@H]2CC[C@@H](C(=O)N3C[C@@H](C#N)[C@H](c4cc[nH]c(=O)c4)C3)N2C(=O)[C@@H](NC(=O)c2ccc3ccc(C(F)(F)P(=O)(O)O)cc3c2)C1 (single isomer, unassigned) [Compound 238] ?
A. 5.52 to 6.52

Q. Could you share which pIC50 value was measured for CCc1ccc2onc(C(=O)N3CC[C@H]4CC[C@@H](C(=O)N5CCOCC56CC6)N4C(=O)[C@@H](NC(=O)c4ccc5ccc(C(F)P(=O)(O)O)cc5c4)C3)c2c1 (stereo partly shown) ?
A. ≥ 6.52

Q. Could you share which pIC50 value was measured for CC(=O)N1CC[C@H]2CC[C@@H](C(=O)N3CCN(C(=O)OCc4ccccc4)CC3)N2C(=O)[C@@H](NC(=O)c2cc3cc(C(F)(F)P(=O)(O)O)ccc3[nH]2)C1 ?
A. 5.52 to 6.52
